Recorded Ratio 2/5 in % for the following binders
Test system: T1, somatostatin receptor 5 (UniProt P35346 1-364, limits assumed)
T1 construct: whole, on cells; Assayed as membrane preparation of CHO-K1 cells stably expressing the cloned receptor; also called SSTR5; somatostatin receptor subtype 5
T1 sequence (P35346 whole entry): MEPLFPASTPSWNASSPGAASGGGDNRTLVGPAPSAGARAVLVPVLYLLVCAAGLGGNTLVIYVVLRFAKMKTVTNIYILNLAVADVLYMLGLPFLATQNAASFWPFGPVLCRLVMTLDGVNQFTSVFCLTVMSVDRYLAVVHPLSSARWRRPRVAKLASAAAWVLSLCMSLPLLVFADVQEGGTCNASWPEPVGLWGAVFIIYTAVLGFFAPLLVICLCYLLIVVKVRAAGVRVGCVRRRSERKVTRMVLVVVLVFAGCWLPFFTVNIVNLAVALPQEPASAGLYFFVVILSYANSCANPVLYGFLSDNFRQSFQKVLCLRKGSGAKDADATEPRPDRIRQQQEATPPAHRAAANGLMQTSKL
Experiment: ratio of IC50 on SSTR2 to IC50 on SSTR5 (reference SSTR2), radioligand competition binding on CHO-K1 membranes
[ ]: non-standard residue; d: D form. Phe(4-F) = N[C@@H](Cc1ccc(F)cc1)C(=O)O; NMeF = CN[C@@H](Cc1ccccc1)C(=O)O; Thz = O=C(O)[C@@H]1CSCN1
Your answer should be a plain number; it is taken to be in %.

cyclo([Thz][dW]KTMF) (SMILES CSCC[C@@H]1NC(=O)[C@H]([C@@H](C)O)NC(=O)[C@H](CCCCN)NC(=O)[C@@H](Cc2c[nH]c3ccccc23)NC(=O)[C@@H]2CSCN2C(=O)[C@H](Cc2ccccc2)NC1=O, Cyclic hexapeptide; also called cyclo[ThioPro-DTrp-Lys-Thr-Met-Phe]) [P2297] ... 37.1

Consider cyclo([Phe(4-F)][dW]KTM[NMeF]) (SMILES CSCC[C@@H]1NC(=O)[C@H]([C@@H](C)O)NC(=O)[C@H](CCCCN)NC(=O)[C@@H](Cc2c[nH]c3ccccc23)NC(=O)[C@H](Cc2ccc(F)cc2)NC(=O)[C@H](Cc2ccccc2)N(C)C1=O, Cyclic hexapeptide; also called cyclo[Phe(4-F)-DTrp-Lys-Thr-Met-(N-Me)Phe]) [P2292] . Its measured Ratio 2/5 in % is 2
